property.name: melting point

compound | property.name | readout.value
CC1=C(c2cccc(C(F)(F)F)c2)n2ncc(C#N)c2N(C(=O)CN2CCN(c3ccccn3)CC2)C1 | melting point | 132 to 134 °C

Prompt: In one line, give reported melting point of the entry "COc1cc2c(O)c(S(=O)(=O)N(C)C)cnc2cc1Cl" .
Response: 316 to 318 °C

Prompt: Look up and report measured melting point for this entry: "CCOC(=O)c1c(Cc2nc[nH]n2)nc2sc3cnccc3c2c1-c1ccc(OC)c(OC)c1"
Response: 172 to 174 °C

Prompt: Quick one: give measured melting point for CCC(C)COc1ccc(-c2ccc(O)cc2)cc1C#N (centres undefined)
Response: 181 °C

###

property.name: melting point

// known answers, use as guide
compound | readout.value
CSC(=C[N+](=O)[O-])NCC(O)c1cccc(C)c1 (centres undefined) | 99 to 101 °C
CC(C)NC(=O)N1C2=NC(C)(C)N(C)C(=O)N2c2ccccc21 | 93 to 96 °C
CC=C1CCC(C(=O)OC)C(C(=O)OC)C1 (centres undefined) | 162 to 163 °C
C=Cc1ccc(CN2CCN(Cc3ccc(C=C)cc3)CCN(Cc3ccc(C=C)cc3)CC2)cc1 | 71 to 73 °C
CCc1cc(C[C@H](NC(=O)c2c(Cl)cccc2Cl)C(=O)O)ccc1-c1ccccc1OC | 105 to 107 °C
COc1c(OC2CCC(=O)CC2)ccnc1C | 56 to 57 °C

Prompt: Item "COC(=O)Cn1c(=O)c2ccccc2n(CCCCl)c1=O" : provide melting point
Response: 144 to 146 °C

Prompt: Tell us which melting point value is on record for Cc1nnc(-c2ccc3occ(-c4ccc(S(C)=O)cc4Cl)c3c2)o1 (centres undefined)
Response: 175 to 176 °C

Prompt: In one line, give reported melting point of the entry CCOC(=O)C(Cc1ccc(C(F)(F)F)cc1)C(=O)c1ccoc1 (centres undefined) .
Response: 55 to 56 °C

Prompt: Supply reported melting point belonging to this compound: "COc1ccc(C(=O)c2ccc(OCCc3nc(-c4ccccc4)oc3C)nc2)c(O)c1"
Response: 114 to 115 °C

Prompt: Quote melting point reported for "Cc1nccn1-c1cccc(Nc2ccc(-c3ccoc3)cc2N)c1" please.
Response: 98 to 99 °C

Prompt: Fill in melting point for record CCOC(=O)CCC1(NC(=O)c2ccc(Cl)c(Cl)c2)C(=O)N(CC(=O)O)c2ccccc21 (centres undefined)
Response: 219 to 220 °C

Prompt: Identify measured melting point corresponding to "CCn1c(=O)c2[nH]c(/C=C/c3ccc4c(c3)OCO4)nc2n(CC)c1=O"
Response: > 275 °C

Prompt: Read the entry "CC(=O)Nc1ccc(/C=C/C(=O)NCC(=O)N(C)c2ccc(C)c(CCl)c2C)cn1" and write its reported melting point.
Response: 218 to 220 °C

###

Items are presented alongside their recorded melting point.

Here are 6 compounds together with their reported answers.
compound | melting point
CCN1CCC(Cc2ccc(Cl)nc2)C1=C[N+](=O)[O-] (configuration not stated) | 129 to 131 °C
CCC12CCC(=O)C3Oc4c(O)ccc5c4C31CCN(CC1CC1)C2C5 (configuration not stated) | 157 to 158 °C
COc1cc(-n2nc(C)[nH]c2=O)ccc1C | 164 to 168 °C
Cc1nn(-c2ccc(F)cc2)cc1C(=O)Nc1ccc(N2CCC(O)CC2)c(C#N)c1 | 224 to 225 °C
O=C(c1cccs1)c1cnn2c(-c3cccc(-c4ccc(CO)cc4)c3)ccnc12 | 106 to 110 °C
COc1cc(Cl)c([N+](=O)[O-])cc1C(=O)O | 184 to 185 °C

Prompt: # return recorded melting point for entry Cc1nc2c3c(ccc2n1C)CCC(c1ccccc1)O3 (configuration not stated)
Response: 161 to 164 °C

Prompt: Item O=[N+]([O-])c1ccccc1-c1ccc2c(c1)S(=O)(=O)NC(C1CCCCC1)N2 (configuration not stated) : provide melting point
Response: 204 to 207 °C

Prompt: Please give the documented melting point of "CN1C(=O)c2cnc(-c3ccccc3)nc2N(C(=O)CN2CCOCC2)c2ccccc21"
Response: 180 to 181 °C

Prompt: Tell me melting point reported for "Cc1ccc(-c2c(NS(=O)(=O)c3ccc(C(C)(C)C)cc3)nc(-c3cccs3)nc2OCCO)cc1"
Response: > 300 °C

Prompt: Quick one: give measured melting point for "CCOC(=O)c1ccc(-c2ccc(N(c3ccc(-c4ccccc4)cc3)c3ccc(-c4ccc(C(=O)OCC)cc4)cc3)cc2)cc1"
Response: 200 to 201 °C

Prompt: Assign melting point to the following record: CC1Cc2cc3c(cc2C(c2ccc([N+](=O)[O-])cc2)=NN1C(=S)Cl)OCO3 (configuration not stated)
Response: 187 to 188 °C
